These data points were gathered from the supplement of paper PMC10567573.

B1: RAB40B (parent)
chain: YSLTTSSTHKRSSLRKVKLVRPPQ

variants of: B1; assay: protein stability index of a GFP-peptide fusion (GPS, HEK-293T) (PSI 1-6); higher = more stable; details: c terminus: a fixed tail appended;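 further: lentivirally expressed fusions sorted by FACS into six bins by GFP to DsRed ratio, PSI derived from sequencing read proportions per bin multiplied by bin number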
metricName: protein stability index

sequencechange=L14G obsvalue=3.79
sequencechange=P23E obsvalue=3.1
sequencechange=T4G obsvalue=3.33
sequencechange=S2G obsvalue=3.06
sequencechange=H9Y obsvalue=2.38
sequencechange=Y1D obsvalue=4.11
sequencechange=S2H obsvalue=2.09
sequencechange=S6I obsvalue=2.58
sequencechange=L19P obsvalue=3.63
sequencechange=L14S obsvalue=3.5
sequencechange=L3H obsvalue=3.06
sequencechange=R11V obsvalue=2.52
sequencechange=K10G obsvalue=3.21
sequencechange=K10V obsvalue=2.55
sequencechange=Q24D obsvalue=3.42
sequencechange=R21N obsvalue=2.92
sequencechange=T8H obsvalue=2.76
sequencechange=S12Q obsvalue=3.71
sequencechange=V20R obsvalue=3.09
sequencechange=R11I obsvalue=2.46
sequencechange=K18Y obsvalue=2.05
sequencechange=K18W obsvalue=2.32
sequencechange=K10N obsvalue=2.85
sequencechange=T4L obsvalue=3.26
sequencechange=H9C obsvalue=2.72
sequencechange=S2P obsvalue=2.74
sequencechange=P23M obsvalue=2.8
sequencechange=L19Q obsvalue=2.33
sequencechange=T5G obsvalue=3.25
sequencechange=T5P obsvalue=3.05
sequencechange=V17G obsvalue=3.12
sequencechange=S7A obsvalue=2.84
sequencechange=S13D obsvalue=2.58
sequencechange=S6P obsvalue=2.63
sequencechange=P22R obsvalue=3
sequencechange=H9N obsvalue=3.11
sequencechange=L14F obsvalue=2.62
sequencechange=R11A obsvalue=3.68
sequencechange=R15Y obsvalue=1.86
sequencechange=S6Q obsvalue=2.92
sequencechange=K18N obsvalue=2.98
sequencechange=K16G obsvalue=2.81
sequencechange=K18F obsvalue=2.54
sequencechange=V17C obsvalue=2.91
sequencechange=T8Q obsvalue=3.26
sequencechange=S6R obsvalue=2.96
sequencechange=S13R obsvalue=3.4
sequencechange=Y1G obsvalue=3.75
sequencechange=P22Q obsvalue=3.39
sequencechange=P23W obsvalue=2.04
sequencechange=K16Y obsvalue=2.9
sequencechange=K16T obsvalue=3.03
sequencechange=R15G obsvalue=2.97
sequencechange=L19D obsvalue=3.71
sequencechange=Q24V obsvalue=2.31
sequencechange=L19I obsvalue=2.9
sequencechange=L19E obsvalue=3.04
sequencechange=T5E obsvalue=3.62
sequencechange=Y1E obsvalue=4.12
sequencechange=V17E obsvalue=3.5
sequencechange=L19G obsvalue=3.7
sequencechange=L19N obsvalue=3.39
sequencechange=K10P obsvalue=2.92
sequencechange=K10H obsvalue=2.68
sequencechange=V20Y obsvalue=2.85
sequencechange=R11K obsvalue=3.17
sequencechange=R21M obsvalue=2.51
sequencechange=S13M obsvalue=2.47
sequencechange=R11E obsvalue=3.33
sequencechange=H9T obsvalue=3.32
sequencechange=H9P obsvalue=3.08
sequencechange=K16E obsvalue=3.52
sequencechange=R15W obsvalue=2.12
sequencechange=R15T obsvalue=3.02
sequencechange=L3A obsvalue=3.88
sequencechange=P22N obsvalue=3.72
sequencechange=R15D obsvalue=3.54
sequencechange=R15I obsvalue=2.13
sequencechange=P22E obsvalue=3.5
sequencechange=K16P obsvalue=3.06
sequencechange=R21W obsvalue=2.25
sequencechange=L19S obsvalue=3.45
sequencechange=T4H obsvalue=2.81
sequencechange=V20T obsvalue=3.25
sequencechange=S7I obsvalue=2.6
sequencechange=L3N obsvalue=3.3
